Each recorded value in this set is attributed to patent US20190211072A1.

Biological target: GLP-1R (Homo sapiens, UniProt P43220)
Construct: expressed in transfected cells; host or cells: HEK293-GLP-1R cells transduced with the H188 cAMP FRET reporter
Sequence (P43220 24-463, species assumed): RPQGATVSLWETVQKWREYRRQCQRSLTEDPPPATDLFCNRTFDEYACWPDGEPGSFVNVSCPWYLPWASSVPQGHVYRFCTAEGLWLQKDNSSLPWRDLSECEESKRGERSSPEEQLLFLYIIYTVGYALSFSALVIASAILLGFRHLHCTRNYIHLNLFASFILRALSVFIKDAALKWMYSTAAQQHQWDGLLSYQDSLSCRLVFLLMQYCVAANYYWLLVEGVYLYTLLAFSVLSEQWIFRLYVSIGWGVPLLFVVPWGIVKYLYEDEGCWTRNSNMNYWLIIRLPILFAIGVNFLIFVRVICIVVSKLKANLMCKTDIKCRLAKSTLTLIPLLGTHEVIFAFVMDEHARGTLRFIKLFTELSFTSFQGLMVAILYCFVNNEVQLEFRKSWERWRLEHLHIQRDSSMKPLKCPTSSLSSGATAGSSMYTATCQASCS
Test: LY2409021 block of GGP817 action in HEK293-GLP-1R cells transduced with H188
Assay type: cell-based
PARAMETER: IC50 (nM)
// note: answer is a bare numeric in nM

Reported IC50 ( `Cc1cc(O[C@@H](CCC(F)(F)F)c2ccc(C(=O)NCCC(=O)O)cc2)cc(C)c1-c1ccc(C(C)(C)C)cc1` ) = 1600
